These entries and their values trace back to ChEMBL document CHEMBL1201862.

System: 786-0
protocolNotes: NCI tumour cell line growth inhibition, 48 h
Calls of active or inactive are those of the source. Rule as the data show it: active = GI50 up to about 1.1 µM and inactive = higher.
valueType: GI50

input: Sample Cc1nc2ccccc2n1Cc1nnc(-c2ccccc2)o1 — what was its GI50?
output: 38.7 µM (inactive)

input: GET /values?readout=GI50&item= O=C(COC(=O)c1cccc2c(=O)c3ccccc3[nH]c12)Nc1ccc(S(=O)(=O)Nc2ncccn2)cc1
output: 42.2 µM (inactive)

input: Form field: reported GI50 of COC(=O)c1ccc(CCc2cc(O)c(Br)cc2O)cc1
output: 14.4 µM (inactive)

input: What value of GI50 has been recorded for this entry: O=C(O)C12C3CCC(CC3)C1(C(=O)O)C1CCC2C1 (stereo not given)
output: > 100 µM (inactive)

input: Please look up its GI50: Cc1cccc2c(N)c3cccc(C(=O)NCC[N+](C)(C)Cc4ccc(S(C)(=O)=O)cc4)c3nc12
output: 28 µM (inactive)
